Target: human muscarinic M3 receptor (Homo sapiens, UniProt P20309)
Construct: expressed in transfected cells
Sequence (P20309 whole entry): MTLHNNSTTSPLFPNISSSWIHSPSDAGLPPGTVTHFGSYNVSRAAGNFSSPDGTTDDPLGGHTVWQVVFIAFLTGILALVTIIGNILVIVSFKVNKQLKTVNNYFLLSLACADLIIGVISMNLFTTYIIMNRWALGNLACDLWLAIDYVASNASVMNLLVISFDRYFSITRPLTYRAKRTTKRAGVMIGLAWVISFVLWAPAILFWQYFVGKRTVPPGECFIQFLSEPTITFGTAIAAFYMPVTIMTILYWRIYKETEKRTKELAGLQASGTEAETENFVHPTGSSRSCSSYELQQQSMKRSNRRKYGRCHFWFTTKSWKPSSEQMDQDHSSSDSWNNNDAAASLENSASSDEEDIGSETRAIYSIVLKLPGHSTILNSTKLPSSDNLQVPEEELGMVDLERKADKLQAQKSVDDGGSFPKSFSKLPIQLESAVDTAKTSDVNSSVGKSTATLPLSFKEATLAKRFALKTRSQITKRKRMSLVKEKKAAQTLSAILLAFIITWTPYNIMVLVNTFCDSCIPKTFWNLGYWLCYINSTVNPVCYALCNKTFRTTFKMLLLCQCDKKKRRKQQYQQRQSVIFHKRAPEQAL
Assay: hM3 β-Lac potency assay (cell based β-lactamase)
Conditions: CHO cells expressing human M3 receptor, NFAT β-lactamase reporter; inhibition of 80 nM carbamyl choline signal, 4 h; IC50 converted to Ki by Cheng-Prusoff; read-out: Cell based β-lactamase M3 Ki
readout type: Ki (nM)

CC(C)(CCC(C#N)(c1ccccc1)c1ccccc1)N1CC(Oc2cccc(O)c2)C1 [Example 150] :: 1.05

P. CC(C)(CCC(C(N)=O)(c1ccccc1)c1ccccc1)N1CC[C@@H](OCc2cccc(O)c2Cl)C1 [Example 85]
Q. CC(C)(CCC(C(N)=O)(c1ccccc1)c1ccccc1)N1CC(Oc2cccc(O)c2)C1 [Example 108]
R. CC(C)(CCC(C(N)=O)(c1ccccc1)c1ccccc1)N1CC(Oc2cc(O)cc(Br)c2)C1 [Example 142]
(Q) Task for the reader: rank each entry by its Ki, from the minimum upward. Arrange the labels as the request states and list them.
(A) Q, P, R
(Q: 0.201 nM, P: 3.19 nM, R: 8.05 nM)

a. CC(C)(CCC(C(N)=O)(c1ccccc1)c1ccccc1)N1CC[C@@H](Oc2ccc3ncoc3c2)C1 [Example 15]
b. CC(C)(CCC(C(N)=O)(c1ccccc1)c1ccccc1)N1CC[C@@H](Oc2ccc(O)c(Cl)c2)C1 [Example 72]
(Q) # min-compare on Ki between a and b Answer = label.
(A) b

P. CC(C)(CCC(C(N)=O)(c1ccccc1)c1ccccc1)N1CCC(Oc2ccccc2)CC1 [Example 90]
Q. COc1cccc(O[C@H]2CCN(C(C)(C)CCC(C(N)=O)(c3ccccc3)c3ccccc3)C2)c1F [Example 51]
(Q) Larger number for Ki: P , or Q ? Answer = label.
(A) Q
(Q: 0.623 nM, P: 0.268 nM)

----------
Target: human muscarinic M3 receptor (Homo sapiens)
Construct: expressed in transfected cells
Test: hM3 β-Lac potency assay (cell based β-lactamase)
Details: CHO cells expressing human M3 receptor, NFAT β-lactamase reporter; inhibition of 80 nM carbamyl choline signal, 4 h; IC50 converted to Ki by Cheng-Prusoff; read-out: Cell based β-lactamase M3 Ki
readout type: Ki (nM)

COc1cccc(O[C@@H]2CCN(C(C)(C)CCC(C(N)=O)(c3ccccc3)c3ccccc3)C2)c1Cl [Example 77] :: 4.96
CC(C)(CCC(C(N)=O)(c1ccccc1)c1ccccc1)N1CC[C@H](Oc2cc(Cl)c(Cl)cc2O)C1 [Example 32] :: 36.4
CC(C)(CCC(C#N)(c1ccccc1)c1ccccc1)N1CC[C@H](OCc2cccc(-c3ccccc3O)c2)C1 [Example 58] :: 1580
CC(C)(CCC(C(N)=O)(c1ccccc1)c1ccccc1)N1CC(Oc2cc(Cl)c(Cl)cc2O)C1 [Example 111] :: 76.9
COc1cc(OC2CN(C(C)(C)CCC(C(N)=O)(c3ccccc3)c3ccccc3)C2)ccc1Cl [Example 113] :: 7.22

A. CC(C)(CCC(C(N)=O)(c1ccccc1)c1ccccc1)N1CC(Oc2cc(O)cc(O)c2)C1 [Example 149]
B. CC(C)(CCC(C(N)=O)(c1ccccc1)c1ccccc1)N1CC[C@H](Oc2ccc(-c3cccc(O)c3)cc2)C1 [Example 18]
C. CC(C)(CCC(C(N)=O)(c1ccccc1)c1ccccc1)N1CC[C@H](OCc2ccccc2)C1 [Example 11]
(Q) Task for the reader: rank each entry by its Ki, from the minimum upward. Arrange the labels as the request states and list them.
(A) A, C, B
(A: 0.714 nM, C: 3.27 nM, B: 6.96 nM)

1. CC(C)(CCC(C#N)(c1ccccc1)c1ccccc1)N1CCC(Oc2ccccc2)CC1 [Example 86]
2. COc1cccc(O[C@H]2CCN(C(C)(C)CCC(C(N)=O)(c3ccccc3)c3ccccc3)C2)c1Cl [Example 37]
3. CC(C)(CCC(C(N)=O)(c1ccccc1)c1ccccc1)N1CC[C@@H](OCc2ccccc2)C1 [Example 9]
(Q) Task for the reader: rank each entry by its Ki, from the minimum upward. Arrange the labels as the request states and list them.
(A) 1, 3, 2

a. COc1cccc(CO[C@H]2CCN(C(C)(C)CCC(C(N)=O)(c3ccccc3)c3ccccc3)C2)c1 [Example 84]
b. COc1cc(O[C@H]2CCN(C(C)(C)CCC(C(N)=O)(c3ccccc3)c3ccccc3)C2)ccc1F [Example 50]
(Q) # min-compare on Ki between a and b Answer = label.
(A) b

a. NC(=O)C(CCC1(N2CC(Oc3ccc(O)c(F)c3)C2)CCCC1)(c1ccccc1)c1ccccc1 [Example 145]
b. COc1cccc(O[C@H]2CCN(C(C)(C)CCC(C(N)=O)(c3ccccc3)c3ccccc3)C2)c1 [Example 6]
c. COc1ccc(OC2CN(C(C)(C)CCC(C#N)(c3ccccc3)c3ccccc3)C2)cc1 [Example 105]
(Q) Task for the reader: rank each entry by its Ki, from the minimum upward. Arrange the labels as the request states and list them.
(A) b, c, a

P. CC(C)(CCC(C(N)=O)(c1ccccc1)c1ccccc1)N1CCC(OCc2cccc(-c3cccc(O)c3)c2)CC1 [Example 98]
Q. CC(C)(CCC(C(N)=O)(c1ccccc1)c1ccccc1)N1CCC(Oc2cc(F)c(C#N)cc2F)CC1 [Example 94]
R. COc1cccc(O[C@@H]2CCN(C(C)(C)CCC(C(N)=O)(c3ccccc3)c3ccccc3)C2)c1 [Example 12]
S. CC(C)(CCC(C(N)=O)(c1ccccc1)c1ccccc1)N1CC[C@H](Oc2cccc(-c3cccc(O)c3)c2)C1 [Example 19]
(Q) Highest Ki first, then in falling order down to the smallest. Arrange the labels as the request states and list them.
(A) P, Q, S, R
(P: 139 nM, Q: 12.4 nM, S: 5.56 nM, R: 0.3 nM)

P. CC(C)(CCC(C(N)=O)(c1ccccc1)c1ccccc1)N1CC[C@H](Oc2ccc3cc(O)ccc3c2)C1 [Example 20]
Q. CC(C)(CCC(C(N)=O)(c1ccccc1)c1ccccc1)N1CC[C@H](OCc2cccc(-c3cccc(O)c3)c2)C1 [Example 61]
R. CC(C)(CCC(C(N)=O)(c1ccccc1)c1ccccc1)N1CCC(OCc2cccc(Br)c2)CC1 [Example 91]
S. CC(C)(CCC(C(N)=O)(c1ccccc1)c1ccccc1)N1CC[C@H](OCc2ccc(-c3cccc(O)c3)cc2)C1 [Example 65]
(Q) Highest Ki first, then in falling order down to the smallest. Arrange the labels as the request states and list them.
(A) P, S, R, Q
(P: 108 nM, S: 62.7 nM, R: 22.6 nM, Q: 9.85 nM)
